Would you kindly list log10(GI50) for each of these molecules?
# System: KM12
# Test Method Notes: Growth inhibition of human KM12 cells after 48 hrs by sulforhodamine B assay
# Assay type: functional
# Details: KM12, 48 h
Friendly reminder: values = log10 of GI50, unit µM.

Supply log10(GI50) value. Item: Cc1cc(O)cc(-c2nn(CC#N)cc2-c2ccnc(-c3ccc(Oc4ccccc4)cc3)c2)c1
0.28

Supply log10(GI50) value. Item: COc1cc(C)cc(-c2c(-c3ccnc(-c4ccc(C(C)=O)cc4)c3)cnn2CC#N)c1
0.46

Supply log10(GI50) value. Item: COc1cc(C)cc(-c2nn(CC#N)cc2-c2ccc(-c3cccc(C(C)=O)c3)nc2)c1
0.35

Supply log10(GI50) value. Item: Cc1cc(O)cc(-c2nn(CC#N)cc2-c2ccnc(-c3ccc(N(C)C)cc3)c2)c1
0.21

Supply log10(GI50) value. Item: COc1cc(C)cc(-c2nn(CC#N)cc2-c2ccnc(-c3ccc(N(C)C)cc3)c2)c1
-0.51

Supply log10(GI50) value. Item: COc1cc(C)cc(-c2c(-c3ccnc(-c4ccc(N(C)C)cc4)c3)cnn2CC#N)c1
-1.32

* * *

# Tested on: UACC-257
# Test Method Notes: Cytotoxicity against human UACC257 cells assessed as cell growth at 0.001 uM after 48 hrs by sulforhodamine B assay
# Type: functional
# Details: UACC-257, 48 h, read-out: Activity
Assay Endpoint: growth at 0.001 µM (%)
Give just the number in %; leave the unit off.

Supply growth at 0.001 µM value. Item: Cc1cc(O)cc(-c2nn(CC#N)cc2-c2ccnc(-c3ccc(Oc4ccccc4)cc3)c2)c1
95

Supply growth at 0.001 µM value. Item: COc1cc(C)cc(-c2nn(CC#N)cc2-c2ccc(-c3cccc(C(C)=O)c3)nc2)c1
94

Supply growth at 0.001 µM value. Item: Cc1cc(O)cc(-c2nn(CC#N)cc2-c2ccnc(-c3ccc(N(C)C)cc3)c2)c1
96

Supply growth at 0.001 µM value. Item: COc1cc(C)cc(-c2c(-c3ccnc(-c4ccc(N(C)C)cc4)c3)cnn2CC#N)c1
89

Supply growth at 0.001 µM value. Item: COc1cc(C)cc(-c2c(-c3ccnc(-c4ccc(C(C)=O)cc4)c3)cnn2CC#N)c1
95

Supply growth at 0.001 µM value. Item: COc1cc(C)cc(-c2nn(CC#N)cc2-c2ccnc(-c3ccc(N(C)C)cc3)c2)c1
90

* * *

# Test system: SW-620
# Test Method Notes: Growth inhibition of human SW620 cells after 48 hrs by sulforhodamine B assay
# Type: functional
# Details: SW-620, 48 h
Would you kindly list TGI for each of these compounds?
Give just the number in µM; leave the unit off.

Provide TGI, system SW-620, entry Cc1cc(O)cc(-c2nn(CC#N)cc2-c2ccnc(-c3ccc(Oc4ccccc4)cc3)c2)c1
4.33

Provide TGI, system SW-620, entry Cc1cc(O)cc(-c2nn(CC#N)cc2-c2ccnc(-c3ccc(N(C)C)cc3)c2)c1
17.5

Provide TGI, system SW-620, entry COc1cc(C)cc(-c2nn(CC#N)cc2-c2ccc(-c3cccc(C(C)=O)c3)nc2)c1
19.3

* * *

# System: SNB-19
# Test Method Notes: Cytotoxicity against human SNB19 cells assessed as cell growth at 10 uM after 48 hrs by sulforhodamine B assay
# Type: functional
# Details: SNB-19, 48 h, read-out: Activity
Would you kindly list growth at 10 µM for each of these compounds?
Give just the number in %; leave the unit off.

Provide growth at 10 µM, system SNB-19, entry COc1cc(C)cc(-c2c(-c3ccnc(-c4ccc(N(C)C)cc4)c3)cnn2CC#N)c1
35

Provide growth at 10 µM, system SNB-19, entry COc1cc(C)cc(-c2nn(CC#N)cc2-c2ccnc(-c3ccc(N(C)C)cc3)c2)c1
9

Provide growth at 10 µM, system SNB-19, entry Cc1cc(O)cc(-c2nn(CC#N)cc2-c2ccnc(-c3ccc(N(C)C)cc3)c2)c1
-15

Provide growth at 10 µM, system SNB-19, entry Cc1cc(O)cc(-c2nn(CC#N)cc2-c2ccnc(-c3ccc(Oc4ccccc4)cc3)c2)c1
-93

Provide growth at 10 µM, system SNB-19, entry COc1cc(C)cc(-c2c(-c3ccnc(-c4ccc(C(C)=O)cc4)c3)cnn2CC#N)c1
66

Provide growth at 10 µM, system SNB-19, entry COc1cc(C)cc(-c2nn(CC#N)cc2-c2ccc(-c3cccc(C(C)=O)c3)nc2)c1
19

* * *

# Tested on: HOP-62
# Test Method Notes: Growth inhibition of human HOP62 cells after 48 hrs by sulforhodamine B assay
# Type: functional
# Details: HOP-62, 48 h
Assay Endpoint: log10(GI50) (log10 of the value in µM)
Friendly reminder: values = log10 of GI50, unit µM.

Supply log10(GI50) value. Item: COc1cc(C)cc(-c2c(-c3ccnc(-c4ccc(N(C)C)cc4)c3)cnn2CC#N)c1
-0.58

Supply log10(GI50) value. Item: Cc1cc(O)cc(-c2nn(CC#N)cc2-c2ccnc(-c3ccc(N(C)C)cc3)c2)c1
0.45

Supply log10(GI50) value. Item: COc1cc(C)cc(-c2nn(CC#N)cc2-c2ccc(-c3cccc(C(C)=O)c3)nc2)c1
0.49

Supply log10(GI50) value. Item: Cc1cc(O)cc(-c2nn(CC#N)cc2-c2ccnc(-c3ccc(Oc4ccccc4)cc3)c2)c1
0.07

Supply log10(GI50) value. Item: COc1cc(C)cc(-c2nn(CC#N)cc2-c2ccnc(-c3ccc(N(C)C)cc3)c2)c1
-0.41

Supply log10(GI50) value. Item: COc1cc(C)cc(-c2c(-c3ccnc(-c4ccc(C(C)=O)cc4)c3)cnn2CC#N)c1
0.53

* * *

# System: OVCAR-4
# Test Method Notes: Cytotoxicity against human OVCAR4 cells assessed as cell growth at 100 nM after 48 hrs by sulforhodamine B assay
# Type: functional
# Details: OVCAR-4, 48 h, read-out: Activity
Would you kindly list growth at 0.1 µM for each of these compounds?

Supply growth at 0.1 µM value. Item: Cc1cc(O)cc(-c2nn(CC#N)cc2-c2ccnc(-c3ccc(Oc4ccccc4)cc3)c2)c1
106%

Supply growth at 0.1 µM value. Item: COc1cc(C)cc(-c2c(-c3ccnc(-c4ccc(N(C)C)cc4)c3)cnn2CC#N)c1
33%

Supply growth at 0.1 µM value. Item: COc1cc(C)cc(-c2nn(CC#N)cc2-c2ccc(-c3cccc(C(C)=O)c3)nc2)c1
92%

Supply growth at 0.1 µM value. Item: Cc1cc(O)cc(-c2nn(CC#N)cc2-c2ccnc(-c3ccc(N(C)C)cc3)c2)c1
101%

Supply growth at 0.1 µM value. Item: COc1cc(C)cc(-c2nn(CC#N)cc2-c2ccnc(-c3ccc(N(C)C)cc3)c2)c1
33%

Supply growth at 0.1 µM value. Item: COc1cc(C)cc(-c2c(-c3ccnc(-c4ccc(C(C)=O)cc4)c3)cnn2CC#N)c1
105%

* * *

# System: SN12C
# Test Method Notes: Cytotoxicity against human SN12C cells assessed as cell growth at 10 uM
# Format: functional
# Details: read-out: Activity
Assay Endpoint: growth at 10 µM (%)
Give just the number in %; leave the unit off.

Supply growth at 10 µM value. Item: COc1cc(C)cc(-c2nn(CC#N)cc2-c2ccnc(-c3ccc(C(C)=O)cc3)c2)c1
83.6

Supply growth at 10 µM value. Item: COc1cc(C)cc(-c2nn(CC#N)cc2-c2ccnc(-c3ccc(N(C)C)cc3)c2)c1
24.7

Supply growth at 10 µM value. Item: COc1cc(C)cc(-c2nn(CC#N)cc2-c2ccc(-c3cccc(C(C)=O)c3)nc2)c1
40.2

Supply growth at 10 µM value. Item: COc1cc(C)cc(-c2c(-c3ccnc(-c4ccc(N(C)C)cc4)c3)cnn2CC#N)c1
29.4

* * *

# System: OVCAR-5
# Test Method Notes: Cytotoxicity against human OVCAR5 cells assessed as cell growth at 0.01 uM after 48 hrs by sulforhodamine B assay
# Assay type: functional
# Details: OVCAR-5, 48 h, read-out: Activity
Would you kindly list growth at 0.01 µM for each of these molecules?
Give just the number in %; leave the unit off.

Supply growth at 0.01 µM value. Item: COc1cc(C)cc(-c2c(-c3ccnc(-c4ccc(N(C)C)cc4)c3)cnn2CC#N)c1
73

Supply growth at 0.01 µM value. Item: COc1cc(C)cc(-c2c(-c3ccnc(-c4ccc(C(C)=O)cc4)c3)cnn2CC#N)c1
70

Supply growth at 0.01 µM value. Item: COc1cc(C)cc(-c2nn(CC#N)cc2-c2ccnc(-c3ccc(N(C)C)cc3)c2)c1
93

Supply growth at 0.01 µM value. Item: Cc1cc(O)cc(-c2nn(CC#N)cc2-c2ccnc(-c3ccc(N(C)C)cc3)c2)c1
91

Supply growth at 0.01 µM value. Item: COc1cc(C)cc(-c2nn(CC#N)cc2-c2ccc(-c3cccc(C(C)=O)c3)nc2)c1
68

Supply growth at 0.01 µM value. Item: Cc1cc(O)cc(-c2nn(CC#N)cc2-c2ccnc(-c3ccc(Oc4ccccc4)cc3)c2)c1
72
